Cited source for all entries: ChEMBL document CHEMBL1201862

Parameter: GI50. Scope: all listed entries.
Test system: SK-OV-3
test method notes: NCI tumour cell line growth inhibition, 48 h
Calls of active or inactive are those of the source. Cut-off read from the data, not from the text of the source: active = GI50 up to about 1.1 µM and inactive = higher.
measured attribute: GI50

1) COC(=O)C1CCC(=O)N1CN(C(C)=O)c1cccc(O)c1 (configuration not stated) | > 100 µM (inactive)
2) C[C@]12CC[C@H]3[C@@H](CC=C4C[C@@H](N5CCCC5)CC[C@@]43C)[C@@H]1C/C(=C\c1ccc([N+](=O)[O-])cc1)[C@@H]2O | 15.9 µM (inactive)
3) CC1=CCS(=O)(=O)C1C(O)C1=C(C)CCCC1(C)C (configuration not stated) | > 100 µM (inactive)
4) COc1ccc(/C=C2\N=C(N3CCOCC3)NC2=O)cc1 | > 100 µM (inactive)
5) CC1CCC2C(C)(C)CC3(C)CCC1C23O (configuration not stated) | 29 µM (inactive)
6) C[Si](C)(N[Si](C)(C)OCCc1ccccc1)OCCc1ccccc1 | > 100 µM (inactive)
7) COc1ccc(C2CC(c3c(C)nn(-c4ccccc4)c3-c3ccc(C)cc3O)=NN2c2ccccc2)cc1 (configuration not stated) | > 100 µM (inactive)
8) COc1ccc(C2=C(Cl)c3cc(OC)c(OC)cc3C2Cl)cc1OC (configuration not stated) | 32.1 µM (inactive)
9) O=C1CCCC/C1=C/C=C/c1ccccc1 | 55.7 µM (inactive)
10) O=S(=O)(c1ccc(Cl)cc1)c1ccccc1C1=NCCN1 | > 100 µM (inactive)
11) CCCCCCc1cc2cc(-c3cn4c(n3)sc3ccccc34)c(=O)oc2cc1O | > 100 µM (inactive)
12) CCn1c(SCC(=O)NNC(=S)Nc2ccc([N+](=O)[O-])cc2)nc2ccccc2c1=O | > 100 µM (inactive)
13) O=C1N=C2SC(=S)N=C(S)N2NC12c1ccccc1-c1ccccc12 | > 10 µM (inactive)
14) CC1Cn2c(nc3ccccc32)NC1=O (configuration not stated) | > 100 µM (inactive)
15) Cc1ccc(NC(=O)/C(Cc2cc(=O)oc3cc(O)ccc23)=N\NC(=O)C[N+](C)(C)C)cc1C | > 100 µM (inactive)
16) COC1=CC(=O)OC(/C=C(C)/C=C/C2=C(C)CCCC2(C)C)C1 (configuration not stated) | > 100 µM (inactive)
17) O=C(CP(=O)(O)O)c1cccs1 | > 100 µM (inactive)
18) COC(=O)C(=O)C(C(=O)OC)C(=O)C(=O)Nc1ccccc1C(N)=O (configuration not stated) | > 100 µM (inactive)
19) C=CCCCCNC(=O)C[C@@H]1C2=C(CC[C@H]1O[Si](C)(C)C(C)(C)C)N1C(=O)CCC/C=C\C1C2 (some centres not stated) | 16.6 µM (inactive)
20) CN(C)CCn1nc(N)c2nc3cc(C(F)(F)F)ccc3nc21 | > 100 µM (inactive)
21) CN(CCc1ccc(N)cc1)[C@H]1CCCC[C@H]1N1CCCC1 | > 100 µM (inactive)
22) O=C(O)c1cc(-c2ccncc2)nc2ccccc12 | > 100 µM (inactive)
23) O=C(O)C(CSC(c1ccccc1)(c1ccccc1)c1ccccc1)/N=C/c1cccs1 (configuration not stated) | 0.968 µM (active)
24) O=C(CCc1ccc(O)cc1)NCCc1cccc(O)c1 | > 50 µM (inactive)
25) NC(CP(=O)(O)O)C(=O)O (configuration not stated) | > 100 µM (inactive)
26) CCOC(=O)N(NC(=O)NC(C)C)c1ccccc1 | > 100 µM (inactive)
27) Nc1ccc2c(c1)N(C(=O)c1cc3cc(NC(=O)c4cc5ccccc5o4)ccc3[nH]1)CC2CCl (configuration not stated) | 0.128 µM (active)
28) Cc1ccc2c(c1)C(=O)C(Cc1ccccc1C(=O)O)C2 (configuration not stated) | > 100 µM (inactive)
29) C=CCOc1ccc(C2(O)c3ccccc3C3=NCCCN32)cc1 (configuration not stated) | > 95.9 µM (inactive)
30) CC[As](CC)SCC1OC(OC(C)=O)C(OC(C)=O)C(OC(C)=O)C1OC(C)=O (configuration not stated) | 15.8 µM (inactive)
31) CN(/N=C/c1ccc(Cl)c(Cl)c1)C1=NCCN1 | 22.4 µM (inactive)
32) CC(=O)O[C@H]1CCC2[C@@H]3CCC4Nc5c(cnn5-c5ccccc5)C[C@]4(C)C3CC[C@@]21C (some centres not stated) | 18.7 µM (inactive)
